Tested on: lipid peroxide production in rat brain homogenates
Assay: Inhibitory action on lipid peroxide production in rat brain homogenates
Assay type: biochemical
Conditions: 5 v/v % rat brain homogenate, pH 7.4, 1 hour at 37° C.; read-out: Inhibition (IC50) of lipid peroxide production
recorded endpoint: IC50 (nM)
Give bare numbers, in nM.

Solved cases below.
// returns reported IC50 for input Cc1c(C)c2c(c(C)c1O)C(c1ccccc1)C(C)(C)O2 (centres unmarked)
130

// returns reported IC50 for input Cc1c2c(c3ccccc3c1O)OC(C)(C)C2c1cccnc1 (centres unmarked)
120

// returns reported IC50 for input Cc1c(C)c2c(c(C)c1O)C(c1cccnc1)C1(CCCC1)O2 (centres unmarked)
750

// returns reported IC50 for input Cc1c(C)c2c(c(C)c1O)C(c1ccccn1)C(C)(C)O2 (centres unmarked)
250

// returns reported IC50 for input Cc1c(C)c2c(c(C)c1O)C(c1cccnc1)C(C)(C)O2 (centres unmarked)
220

// returns reported IC50 for input Cc1c(C)c2c(c(C)c1O)C(c1ccc(C(C)C)cc1)C(C)(C)O2 (centres unmarked)
25

// returns reported IC50 for input Cc1c(C)c2c(c(C)c1O)C(c1cccnc1)C1(CCCCC1)O2 (centres unmarked)
150

Others:
// returns reported IC50 for input Cc1c(C)c2c(c(C)c1O)C(c1ccc(F)cc1)C(C)(C)O2 (centres unmarked)
230
